B1: glmS ribozyme (parent)
chain: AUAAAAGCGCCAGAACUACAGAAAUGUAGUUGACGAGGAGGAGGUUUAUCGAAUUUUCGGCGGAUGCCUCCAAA

Variants of: B1
Procedure summary: self-cleavage kobs at 2500 uM GlcN6P; higher = faster cleavage; RNA array
Run conditions: with glucosamine-6-phosphate
Variants at the floor of the assay were thinned out.
Parameter self-cleavage kobs at 2500 uM GlcN6P: see the listing below.
Observable: self-cleavage kobs at 2500 uM GlcN6P

# Mutation descriptor, Observable, Result
records = [
    ("G13C C61A C68G", "self-cleavage kobs at 2500 uM GlcN6P", "< 1e-05 s⁻¹"),
    ("G43U C50U U55G", "self-cleavage kobs at 2500 uM GlcN6P", "< 1e-05 s⁻¹"),
    ("C16G U47A", "self-cleavage kobs at 2500 uM GlcN6P", "0.00124 s⁻¹"),
    ("U31A G59A", "self-cleavage kobs at 2500 uM GlcN6P", "5.49e-05 s⁻¹"),
    ("A36G A52U A64G", "self-cleavage kobs at 2500 uM GlcN6P", "< 1e-05 s⁻¹"),
    ("A12G G62A U69A C70A", "self-cleavage kobs at 2500 uM GlcN6P", "0.000135 s⁻¹"),
    ("A33U C67A U69A", "self-cleavage kobs at 2500 uM GlcN6P", "< 1e-05 s⁻¹"),
    ("G38C A39U G60U", "self-cleavage kobs at 2500 uM GlcN6P", "< 1e-05 s⁻¹"),
    ("G43U C61U", "self-cleavage kobs at 2500 uM GlcN6P", "< 1e-05 s⁻¹"),
    ("A42U U45C A52G C70U", "self-cleavage kobs at 2500 uM GlcN6P", "< 1e-05 s⁻¹"),
    ("G13U U54G", "self-cleavage kobs at 2500 uM GlcN6P", "0.000363 s⁻¹"),
]

Recorded values, source the supplement of paper PMC7125110.
